# Test system: 186277-243-T-J2-PDC multi-cell spheroid viability
# methodSummary: Anticancer human tumor 186277-243-T-J2-PDC patient-derived colon adenocarcinoma cell line growth inhibition [PI3K]
# conditionParameters: second compound 0.316 µM; first compound 10 µM; active compounds read low
Documented viability, T/C across a set of molecules

molecule	scaleUnit	viability, T/C
C#Cc1c(F)ccc2cc(O)cc(-c3ncc4c(N5CC6CCC(C5)N6)nc(OCC56CCCN5CC(F)C6)nc4c3F)c12 (stereo unspecified) + COc1c(OCCCN2CCOCC2)ccc2c3n(c(=NC(=O)c4cnc(N)nc4)nc12)CCN3	%	0.1
CC(Cn1ccc(-c2ccc(C#N)c(Cl)c2)n1)NC(=O)c1cc(C(C)O)[nH]n1 (stereo unspecified) + CC(Nc1ccc2c(c1)OCCn1cc(N3C(=O)OCC3C(F)F)nc1-2)C(N)=O	%	57.7
C[C@@H](NC(=O)c1ncnc(N)c1Cl)c1ncc(C(=O)Nc2cc(C(F)(F)F)c(Cl)cn2)s1 + COc1c(OCCCN2CCOCC2)ccc2c3n(c(=NC(=O)c4cnc(N)nc4)nc12)CCN3	%	1.23
Cn1ncc(Cl)c1-c1cc(C(=O)NC(CN)Cc2cccc(F)c2)sc1Cl (stereo unspecified) + COc1c(OCCCN2CCOCC2)ccc2c3n(c(=NC(=O)c4cnc(N)nc4)nc12)CCN3	%	0.44
CC1(C)CCC(CN2CCN(c3ccc(C(=O)NS(=O)(=O)c4ccc(NCC5CCOCC5)c([N+](=O)[O-])c4)c(Oc4cnc5[nH]ccc5c4)c3)CC2)=C(c2ccc(Cl)cc2)C1 + CC(Nc1ccc2c(c1)OCCn1cc(N3C(=O)OCC3C(F)F)nc1-2)C(N)=O	%	0.63
CC1(C)CCC(CN2CCN(c3ccc(C(=O)NS(=O)(=O)c4ccc(NCC5CCOCC5)c([N+](=O)[O-])c4)c(Oc4cnc5[nH]ccc5c4)c3)CC2)=C(c2ccc(Cl)cc2)C1 + COc1c(OCCCN2CCOCC2)ccc2c3n(c(=NC(=O)c4cnc(N)nc4)nc12)CCN3	%	4.39
Cn1nccc1Nc1nccc(-c2ccn(C(CO)c3ccc(Cl)c(F)c3)c(=O)c2)n1 (stereo unspecified) + CC(Nc1ncnc2nc[nH]c12)c1cc2cccc(Cl)c2c(=O)n1-c1ccccc1	%	23.7
CC(C)NCC(C(=O)N1CCN(c2ncnc3c2C(C)CC3O)CC1)c1ccc(Cl)cc1 (stereo unspecified) + COc1c(OCCCN2CCOCC2)ccc2c3n(c(=NC(=O)c4cnc(N)nc4)nc12)CCN3	%	8.76
C[C@@H](NC(=O)c1ncnc(N)c1Cl)c1ncc(C(=O)Nc2cc(C(F)(F)F)c(Cl)cn2)s1 + Cc1nc(NC(=O)N2CCCC2C(N)=O)sc1-c1ccnc(C(C)(C)C(F)(F)F)c1	%	42.1
CNC(=O)c1ccc(N2C(=S)N(c3ccc(C#N)c(C(F)(F)F)c3)C(=O)C2(C)C)cc1F + CC(Nc1ccc2c(c1)OCCn1cc(N3C(=O)OCC3C(F)F)nc1-2)C(N)=O	%	63.4
C[C@@H](NC(=O)c1ncnc(N)c1Cl)c1ncc(C(=O)Nc2cc(C(F)(F)F)c(Cl)cn2)s1 + CC(Nc1ncnc2nc[nH]c12)c1cc2cccc(Cl)c2c(=O)n1-c1ccccc1	%	80.5
CCCS(=O)(=O)Nc1ccc(F)c(C(=O)c2c[nH]c3ncc(-c4ccc(Cl)cc4)cc23)c1F + CC(Nc1ccc2c(c1)OCCn1cc(N3C(=O)OCC3C(F)F)nc1-2)C(N)=O	%	4.62
Cn1ncc(Cl)c1-c1cc(C(=O)NC(CN)Cc2cccc(F)c2)sc1Cl (stereo unspecified) + CC(Nc1ncnc2nc[nH]c12)c1cc2cccc(Cl)c2c(=O)n1-c1ccccc1	%	16.1
Cn1ncc(Cl)c1-c1cc(C(=O)NC(CN)Cc2cccc(F)c2)sc1Cl (stereo unspecified) + Cc1nc(NC(=O)N2CCCC2C(N)=O)sc1-c1ccnc(C(C)(C)C(F)(F)F)c1	%	9.1
CCCS(=O)(=O)Nc1ccc(F)c(C(=O)c2c[nH]c3ncc(-c4ccc(Cl)cc4)cc23)c1F + Cc1nc(NC(=O)N2CCCC2C(N)=O)sc1-c1ccnc(C(C)(C)C(F)(F)F)c1	%	7.15
C=CC(=O)N1CCN(c2nc(=O)n(-c3c(C)ccnc3C(C)C)c3nc(-c4c(O)cccc4F)c(F)cc23)C(C)C1 (stereo unspecified) + CC(Nc1ncnc2nc[nH]c12)c1cc2cccc(Cl)c2c(=O)n1-c1ccccc1	%	88.8
CC(Cn1ccc(-c2ccc(C#N)c(Cl)c2)n1)NC(=O)c1cc(C(C)O)[nH]n1 (stereo unspecified) + CC(Nc1ncnc2nc[nH]c12)c1cc2cccc(Cl)c2c(=O)n1-c1ccccc1	%	102
C=CC(=O)N1CCN(c2nc(=O)n(-c3c(C)ccnc3C(C)C)c3nc(-c4c(O)cccc4F)c(F)cc23)C(C)C1 (stereo unspecified) + COc1c(OCCCN2CCOCC2)ccc2c3n(c(=NC(=O)c4cnc(N)nc4)nc12)CCN3	%	4.1
CCCS(=O)(=O)Nc1ccc(F)c(C(=O)c2c[nH]c3ncc(-c4ccc(Cl)cc4)cc23)c1F + CC(Nc1ncnc2nc[nH]c12)c1cc2cccc(Cl)c2c(=O)n1-c1ccccc1	%	10.1
C#Cc1c(F)ccc2cc(O)cc(-c3ncc4c(N5CC6CCC(C5)N6)nc(OCC56CCCN5CC(F)C6)nc4c3F)c12 (stereo unspecified) + CC(Nc1ccc2c(c1)OCCn1cc(N3C(=O)OCC3C(F)F)nc1-2)C(N)=O	%	2.61
CCCS(=O)(=O)Nc1ccc(F)c(C(=O)c2c[nH]c3ncc(-c4ccc(Cl)cc4)cc23)c1F + COc1c(OCCCN2CCOCC2)ccc2c3n(c(=NC(=O)c4cnc(N)nc4)nc12)CCN3	%	2.99

* * *

# System: 186277-243-T-J2-PDC multi-cell spheroid viability
# methodSummary: Anticancer human tumor 186277-243-T-J2-PDC cell line growth inhibition [PI3K]; active = viability on the fitted dose curve at most 10% of control; inactive = the rest;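 also: spheroids exposed to compounds for seven days before viability reading; 100% = DMSO vehicle control viability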
# conditionParameters: second compound 0.316 µM; first compound 0.01 µM
Outcome codes: y = active, n = inactive

molecule	categoryLabel
CC(C)n1nc(-c2ccc3oc(N)nc3c2)c2c(N)ncnc21 + CC(Nc1ccc2c(c1)OCCn1cc(N3C(=O)OCC3C(F)F)nc1-2)C(N)=O	n
CCN1CCN(Cc2ccc(Nc3ncc(F)c(-c4cc(F)c5nc(C)n(C(C)C)c5c4)n3)nc2)CC1 + COc1c(OCCCN2CCOCC2)ccc2c3n(c(=NC(=O)c4cnc(N)nc4)nc12)CCN3	y
CC(=O)c1c(C)c2cnc(Nc3ccc(N4CCNCC4)cn3)nc2n(C2CCCC2)c1=O + CC(Nc1ccc2c(c1)OCCn1cc(N3C(=O)OCC3C(F)F)nc1-2)C(N)=O	n
CCN1CCN(Cc2ccc(Nc3ncc(F)c(-c4cc(F)c5nc(C)n(C(C)C)c5c4)n3)nc2)CC1 + CC(Nc1ccc2c(c1)OCCn1cc(N3C(=O)OCC3C(F)F)nc1-2)C(N)=O	n

* * *

# Test system: 186277-243-T-J2-PDC multi-cell spheroid viability
# methodSummary: Anticancer human tumor 186277-243-T-J2-PDC cell line growth inhibition [PI3K];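 also: spheroids exposed to compounds for seven days before viability reading; 100% = DMSO vehicle control viability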
# conditionParameters: second compound 0.00316 µM; first compound 10 µM; active compounds read low

molecule	targetEntity	viability, T/C (%)
CC1(C)CCC(CN2CCN(c3ccc(C(=O)NS(=O)(=O)c4ccc(NCC5CCOCC5)c([N+](=O)[O-])c4)c(Oc4cnc5[nH]ccc5c4)c3)CC2)=C(c2ccc(Cl)cc2)C1 + COc1c(OCCCN2CCOCC2)ccc2c3n(c(=NC(=O)c4cnc(N)nc4)nc12)CCN3	186277-243-T-J2-PDC multi-cell spheroid viability	115
CC(C)NCC(C(=O)N1CCN(c2ncnc3c2C(C)CC3O)CC1)c1ccc(Cl)cc1 (stereo not drawn) + CC(Nc1ccc2c(c1)OCCn1cc(N3C(=O)OCC3C(F)F)nc1-2)C(N)=O	186277-243-T-J2-PDC multi-cell spheroid viability	21.4
CNC(=O)c1ccc(N2C(=S)N(c3ccc(C#N)c(C(F)(F)F)c3)C(=O)C2(C)C)cc1F + CC(Nc1ccc2c(c1)OCCn1cc(N3C(=O)OCC3C(F)F)nc1-2)C(N)=O	186277-243-T-J2-PDC multi-cell spheroid viability	92.2

* * *

# Tested on: 186277-243-T-J2-PDC multi-cell spheroid viability
# methodSummary: Anticancer human tumor 186277-243-T-J2-PDC cell line growth inhibition [PI3K];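 also: spheroids exposed to compounds for seven days before viability reading; 100% = DMSO vehicle control viability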
# conditionParameters: second compound 0.0316 µM; first compound 0.316 µM; active compounds read low
Output 1 for records whose viability, T/C is lower than 80%, -1 for records at or above 80%.

compound	categoryLabel
C[C@@H](NC(=O)c1ncnc(N)c1Cl)c1ncc(C(=O)Nc2cc(C(F)(F)F)c(Cl)cn2)s1 + CC(Nc1ccc2c(c1)OCCn1cc(N3C(=O)OCC3C(F)F)nc1-2)C(N)=O	-1
CC(C)NCC(C(=O)N1CCN(c2ncnc3c2C(C)CC3O)CC1)c1ccc(Cl)cc1 (stereo unspecified) + Cc1nc(NC(=O)N2CCCC2C(N)=O)sc1-c1ccnc(C(C)(C)C(F)(F)F)c1	1
CC1(C)CCC(Nc2ncc(C(F)(F)F)c(-c3c[nH]c4c(P(C)(C)=O)c(C#N)ccc34)n2)CN1 (stereo unspecified) + CC(Nc1ccc2c(c1)OCCn1cc(N3C(=O)OCC3C(F)F)nc1-2)C(N)=O	1
CC(C)NCC(C(=O)N1CCN(c2ncnc3c2C(C)CC3O)CC1)c1ccc(Cl)cc1 (stereo unspecified) + COc1c(OCCCN2CCOCC2)ccc2c3n(c(=NC(=O)c4cnc(N)nc4)nc12)CCN3	1
CCCS(=O)(=O)Nc1ccc(F)c(C(=O)c2c[nH]c3ncc(-c4ccc(Cl)cc4)cc23)c1F + CC(Nc1ncnc2nc[nH]c12)c1cc2cccc(Cl)c2c(=O)n1-c1ccccc1	-1
CCN1CCN(Cc2ccc(Nc3ncc(F)c(-c4cc(F)c5nc(C)n(C(C)C)c5c4)n3)nc2)CC1 + COc1c(OCCCN2CCOCC2)ccc2c3n(c(=NC(=O)c4cnc(N)nc4)nc12)CCN3	1
CCN1CCN(Cc2ccc(Nc3ncc(F)c(-c4cc(F)c5nc(C)n(C(C)C)c5c4)n3)nc2)CC1 + CC(Nc1ncnc2nc[nH]c12)c1cc2cccc(Cl)c2c(=O)n1-c1ccccc1	-1
C=CC(=O)N1CCN(c2nc(=O)n(-c3c(C)ccnc3C(C)C)c3nc(-c4c(O)cccc4F)c(F)cc23)C(C)C1 (stereo unspecified) + Cc1nc(NC(=O)N2CCCC2C(N)=O)sc1-c1ccnc(C(C)(C)C(F)(F)F)c1	-1
CC(Cn1ccc(-c2ccc(C#N)c(Cl)c2)n1)NC(=O)c1cc(C(C)O)[nH]n1 (stereo unspecified) + Cc1nc(NC(=O)N2CCCC2C(N)=O)sc1-c1ccnc(C(C)(C)C(F)(F)F)c1	-1
CC1(C)CCC(Nc2ncc(C(F)(F)F)c(-c3c[nH]c4c(P(C)(C)=O)c(C#N)ccc34)n2)CN1 (stereo unspecified) + CC(Nc1ncnc2nc[nH]c12)c1cc2cccc(Cl)c2c(=O)n1-c1ccccc1	1
